subjectOfTest: PIM2 (Homo sapiens)
Sequence (Q9P1W9 whole entry): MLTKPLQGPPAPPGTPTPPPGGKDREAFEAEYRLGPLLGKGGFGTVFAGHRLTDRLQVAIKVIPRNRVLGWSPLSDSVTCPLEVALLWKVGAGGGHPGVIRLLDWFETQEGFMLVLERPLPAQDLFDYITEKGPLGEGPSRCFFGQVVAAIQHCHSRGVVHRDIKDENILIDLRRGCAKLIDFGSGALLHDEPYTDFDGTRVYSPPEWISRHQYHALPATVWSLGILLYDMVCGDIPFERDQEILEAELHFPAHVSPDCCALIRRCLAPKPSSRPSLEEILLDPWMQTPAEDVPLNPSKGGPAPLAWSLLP
Threshold check on IC50: strictly below 80 nM is 1 (yes); on or above 80 nM is 0 (no).

For this compound, is IC50 lower than 80 nM? "N[C@H]1CCCN(c2ccnc3ccc(-c4nccc(-c5nccs5)n4)cc23)C1"
1 (yes)

For this compound, is IC50 lower than 80 nM? "Nc1ccc(-c2cccc(F)c2F)nc1-c1cc2c(N3CCC[C@H](N)C3)ccnc2cn1"
1 (yes)

For this compound, is IC50 lower than 80 nM? "CN(C)C(=O)c1ccc(F)c(-c2ccc(N)c(-c3cc4c(N5CCC[C@H](N)C5)ccnc4cn3)n2)c1"
0 (no)

More entries:
For this compound, is IC50 lower than 80 nM? "N[C@H]1CCCN(c2ccnc3ccc(-c4nccc(-c5c(F)cccc5F)n4)cc23)C1"
0 (no)

For this compound, is IC50 lower than 80 nM? "Nc1ccc(-c2cc(C(=O)NC3CCCCC3)ccc2F)nc1-c1cc2c(N3CCC[C@H](N)C3)ccnc2cn1"
1 (yes)

For this compound, is IC50 lower than 80 nM? "COc1cccc(-c2ccc(N)c(-c3cc4c(N5CCC[C@H](N)C5)ccnc4cn3)n2)n1"
0 (no)

For this compound, is IC50 lower than 80 nM? "N[C@@H]1CN(c2ccnc3ccc(-c4cccc(-c5nccs5)n4)cc23)CC[C@H]1O"
1 (yes)

// data source = patent US8735424B2
